Target: Full length WRN protein (aa 2-1432) (Homo sapiens (Human))
Experiment: WRN ATPase ADP-Glo biochemical assay, Assay Format A (10 μM ATP)
Conditions: 0.25 nM WRN, 100 nM C6.18 ssDNA, 30 min preincubation, read-out: ATPase ADPGlo AC50 (uM)- Assay Format A
READOUT: AC50

Example results:
- MOLECULE: "C=CC(=O)N1CCc2nn(-c3ccc(C4CC4)cc3)c3c2C(C1)N(C(=O)c1cnc(C(F)(F)F)cc1N)CC3 (centres unmarked) [Compound 128]"
  READOUT: "AC50"
  RESULT: "< 0.0015 µM"
- MOLECULE: "C=CC(=O)N1CCc2nn(-c3ccc(C45CC(C4)C5)nc3)c3c2C(C1)N(C(=O)c1ccc(Br)c2[nH]cnc12)CC3 (centres unmarked) [Compound 29]"
  READOUT: "AC50"
  RESULT: "0.015 to 0.055 µM"

[ask] Sample C=CC(=O)N1CC(C)c2nn(-c3ccc(C(C)C)cc3O)c3c2C(C1)N(C(=O)c1ccc(Br)c2[nH]cnc12)CC3 (centres unmarked) [Compound 31] — what was its AC50?
[reply] 0.0015 to 0.005 µM

[ask] Item C=CC(=O)N1CC(OC2CC(C#N)C2)c2nn(-c3ccc(C4CCC4)cc3)c3c2C(C1)N(C(=O)c1cnc(C(F)(F)F)cc1N)CC3 (centres unmarked) [Compound 198] has what recorded AC50?
[reply] < 0.0015 µM

---

Biological target: Full length WRN protein (aa 2-1432) (Homo sapiens (Human), UniProt Q14191)
Sequence (Q14191 2-1432): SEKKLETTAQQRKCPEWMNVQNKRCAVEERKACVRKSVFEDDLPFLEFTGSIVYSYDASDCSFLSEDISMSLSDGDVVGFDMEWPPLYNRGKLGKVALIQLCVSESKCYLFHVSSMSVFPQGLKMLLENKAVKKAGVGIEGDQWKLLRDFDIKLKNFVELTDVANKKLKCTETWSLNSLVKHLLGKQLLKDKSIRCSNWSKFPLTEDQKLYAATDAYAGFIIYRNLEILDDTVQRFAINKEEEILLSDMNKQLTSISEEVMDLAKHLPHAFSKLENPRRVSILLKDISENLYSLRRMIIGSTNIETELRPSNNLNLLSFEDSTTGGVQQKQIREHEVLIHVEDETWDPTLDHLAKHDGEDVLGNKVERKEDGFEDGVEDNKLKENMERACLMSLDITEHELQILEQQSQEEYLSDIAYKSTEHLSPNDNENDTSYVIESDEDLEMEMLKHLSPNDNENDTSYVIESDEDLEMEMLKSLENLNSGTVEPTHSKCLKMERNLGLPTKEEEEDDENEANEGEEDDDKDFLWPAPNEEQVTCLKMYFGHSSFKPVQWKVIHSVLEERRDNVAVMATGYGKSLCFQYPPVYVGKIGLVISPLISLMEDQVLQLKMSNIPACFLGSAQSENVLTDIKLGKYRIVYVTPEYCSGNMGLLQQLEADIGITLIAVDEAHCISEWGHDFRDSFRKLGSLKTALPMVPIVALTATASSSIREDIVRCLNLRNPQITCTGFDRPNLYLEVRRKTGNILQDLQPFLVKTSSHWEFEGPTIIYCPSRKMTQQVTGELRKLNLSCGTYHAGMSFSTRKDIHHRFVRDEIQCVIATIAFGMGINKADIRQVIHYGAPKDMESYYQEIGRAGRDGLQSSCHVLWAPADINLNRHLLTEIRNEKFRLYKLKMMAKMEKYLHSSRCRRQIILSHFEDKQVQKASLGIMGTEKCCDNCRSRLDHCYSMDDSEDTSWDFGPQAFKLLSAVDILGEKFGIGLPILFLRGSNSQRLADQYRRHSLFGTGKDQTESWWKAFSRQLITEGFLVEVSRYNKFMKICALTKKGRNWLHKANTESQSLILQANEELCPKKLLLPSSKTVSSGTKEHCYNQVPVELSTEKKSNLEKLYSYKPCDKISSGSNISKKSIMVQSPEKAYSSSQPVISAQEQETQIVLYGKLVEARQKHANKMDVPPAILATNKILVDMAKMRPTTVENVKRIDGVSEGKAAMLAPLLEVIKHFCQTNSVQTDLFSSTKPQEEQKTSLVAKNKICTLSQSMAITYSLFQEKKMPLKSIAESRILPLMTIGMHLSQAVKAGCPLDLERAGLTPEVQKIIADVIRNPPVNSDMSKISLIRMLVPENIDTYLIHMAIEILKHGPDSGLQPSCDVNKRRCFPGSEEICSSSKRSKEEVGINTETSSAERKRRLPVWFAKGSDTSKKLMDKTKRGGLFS
Test: WRN ATPase ADP-Glo biochemical assay, Assay Format A (10 μM ATP)
Conditions: 0.25 nM WRN, 100 nM C6.18 ssDNA, 30 min preincubation, read-out: ATPase ADPGlo AC50 (uM)- Assay Format A
READOUT: AC50

- MOLECULE: "C=CC(=O)N1CCc2nn(-c3ccc(C(F)(F)F)cc3O)c3c2C(C1)N(C(=O)c1ccc(Br)c2[nH]cnc12)CC3 (stereo not shown) [Compound 3]"
  RESULT: "0.0015 to 0.005 µM"

[ask] Need AC50, item C=CC(=O)N1CC(C)c2nn(-c3ccc(C(C)C)cc3)c3c2C(C1)N(C(=O)c1ccc(Br)c2[nH]cnc12)CC3 (stereo not shown) [Compound 34]
[reply] 0.0015 to 0.005 µM

[ask] Which AC50 is reported for this molecule? C=CC(=O)N1CCc2nn(-c3ccc(C4CCC4)cc3O)c3c2C(C1)N(C(=O)c1cnc(C(F)(F)F)c(SC)c1)CC3 (stereo not shown) [Compound 89]
[reply] < 0.0015 µM

[ask] For the molecule CC(C)c1ccc(-n2nc3c4c2CCN(C(=O)c2ccc(Br)c5[nH]cnc25)C4CN(C(=O)C2=CCC2)CC3)cc1 (stereo not shown) [Compound 16] , what AC50 is on record?
[reply] > 0.055 µM

---

# Lookup of reported AC50 keyed by entry
Biological target: Full length WRN protein (aa 2-1432) (Homo sapiens (Human))
Test: WRN ATPase ADP-Glo biochemical assay, Assay Format B (100 μM ATP)
Conditions: 0.25 nM WRN, 100 nM C6.18 ssDNA, 60 min preincubation, read-out: ATPase ADPGlo AC50 (uM)- Assay Format B

- COMPOUND: "C=CC(=O)N1CCc2nn(-c3ccc(C4CC4)cc3OC(F)F)c3c2C(C1)N(C(=O)c1cnc(C(F)(F)F)cc1N)CC3 (stereo not drawn) [Compound 252]"
  AC50: "0.005 to 0.015 µM"
- COMPOUND: "C=CC(=O)N1CC2c3c(nn(-c4ccc(C5CC5)cc4)c3CCN2C(=O)c2cnc(C(F)(F)F)cc2N)C2(C1)CN(c1nnc(C)s1)C2 (stereo not drawn) [Compound 233]"
  AC50: "> 0.055 µM"
- COMPOUND: "C=CC(=O)N1CC(OC)c2nn(-c3ccc(C4CC4)cc3)c3c2C(C1)N(C(=O)c1cnc(C(F)(F)F)cc1N)CC3 (stereo not drawn) [Compound 187]"
  AC50: "0.005 to 0.015 µM"
- COMPOUND: "C=CC(=O)N1CCc2nn(-c3ccc(C4CC4)cc3O)c3c2C(C1)N(C(=O)c1cc(F)c(C(F)(F)F)nc1N)CC3 (stereo not drawn) [Compound 200]"
  AC50: "0.015 to 0.055 µM"
- COMPOUND: "C=CC(=O)N1CC(C)c2nn(-c3ccc(C(C)C)cc3O)c3c2C(C1)N(C(=O)c1ccc(Br)c2[nH]cnc12)CC3 (stereo not drawn) [Compound 31]"
  AC50: "0.015 to 0.055 µM"

Shift focus to the following entry.
[ask] Given the compound C=CC(=O)N1CCc2nn(-c3ccc(C4CC4)c(F)c3O)c3c2C(C1)N(C(=O)c1cnc(C(C)(F)F)c(F)c1N)CC3 (stereo not drawn) [Compound 227] , what is its reported AC50?
[reply] 0.005 to 0.015 µM
